PROTOCOL_DESCRIPTION: soluble on expression in E. coli; label from the status in PepcDB or PDB records
MEASURED_PARAMETER: soluble on expression in E. coli

Here's what some known entries look like.
[[record]]
primary_sequence = "MGSDKIHHHHHHMETIKAIHTRHSVRAFKDDPIEPQLLTMIVTDAQQTPSWGNSQPWQVYIATGHALTNIKQHYATAAEQGIAEDADLAKVHRGDFSAFASQNMGHWVGTFRPVIDSDPTTYWDSRANLYRAPAIAYLVLDANPNSWSIYDLGAFSQTLMLAATARGVQSVPSYELVKYPAIVRNALGMPANKVVAMGIALGYEKPEKPLNQFRTDRVATPQVLHIIN"
measured_parameter = "soluble on expression in E. coli"
recorded_measurement = "not soluble"

[[record]]
primary_sequence = "MHHHHHHSSGVDLGTENLYFQSMKICSIALVGKYTKLRDCYASVFKALEHSALAINHKLNLMYIDSIDLEKITETEDPVKFHEAWQKLCKADGILVPGGFGIRGTLGKLQAISWARTKKIPFLGVCLGMQLAVIEFARNCLNLKDADSTEFRPNAPVPLVIDMPEHNPGNLGGTMRLGIRRTVFKTENSILRKLYGDVPFIEERHRHRFEVNPNLIKQFEQNDLSFVGQDVDGDRMEIIELANHPYFVGVQFHPEFSSRPMKPSPPYLGLLLAATGNLNAYLQQGCKLS"
measured_parameter = "soluble on expression in E. coli"
recorded_measurement = "soluble"

[[record]]
primary_sequence = "MGSDKIHHHHHHMYFITLSRQLGTKGTEIAKLVAKELHYDFYDTEAIEKKAGEMGFLDDIRKVDDKPPSPLKQLFSWQTETCLEHLYTVIYDLSRYGNAVVLGRGGNMLFRPIPHALHVRVIASHEKRVQNLLEKVYRRETAVMIMEKSDQERSSFIRFAFNRDWGDPELYDMVLNMDNMTVRSAADTILRAARLRESQCPSRDGMSPLNLMELTAKVKAALANAGFPSNYASPFVNAPGKVRLTGIVHDPREKLAAEMTALKVEGVESVENRIQIAGS"
measured_parameter = "soluble on expression in E. coli"
recorded_measurement = "not soluble"

[[record]]
primary_sequence = "MGSDKIHHHHHHMIHLAVGRFNIDIIVKLDSIPPIDSSHMTDVLEIMPGGAATNYAVAVTKLGHSAKLLAKVGKSEVVRSLMEKVVELGVGLEYVEELNEKPSATLIFLRNDGTLSMVRRLGASILLTREDVKRRFGLFDVIHFASVSPNVVVRDPYAKLVSYDPGPQAKNIESVDVDILYVNEKEYEMIEDKNIRARFIVIKMGKKGAKIITETEECSVEPIQVEKIVDTTGAGDTFDAAFNVTYSEDKDIVKSLQVASVASGLKVSRIGGISSPTLEEVREYLRKKKPNVICK"
measured_parameter = "soluble on expression in E. coli"
recorded_measurement = "not soluble"


Dear colleague, I am looking for the recorded soluble on expression in E. coli of the following sequence: GMKKIRFAAIGLAHNHIYDMCQQLIDAGAELAGVFESDSDNRAKFTSLFPSVPFAASAEQLITDASIDLIACAVIPCDRAELALRTLDAGKDFFTAKPPLTTLEQLDAVQRRVAETGRKFAVYFNERINVDSALFAGELVQRGEIGRVIQTMGVGPHRERGARPDWFYQKRQYGGILCDIGIHQIEQFLYFTGNTNARVVTSQTANYHHPHHPEFEDFGDAMLLGDNGATGYFRCDWFTPDGLSVWGDGRLTILGTEGYIEIRKYVDLTRGESNVVYLVNGKGEQRFTPAGSVERAFFPDFLRDCRERTENAMSQSHIFKATELSILAQQAANKIA
soluble
